- Test system: primary mouse cortical neurons
- Construct: primary cortical neurons, DIV 10
- experiment_summary: cells
- Parameters: Protection from NMDA-induced (30 uM, 10 min) neuronal death; Hoechst nuclear morphology by automated microscopy
- condition: Cortical neurone, 20 h, read-out: % inhibition, inhibition of NMDA-induced cell death (protection score), 30 min pre-treatment
Structures can show the parent of a compound that is named as a salt.
property_measured: inhibition at 10 µM (%)

INSERT INTO assay_data (compound, value_reported) VALUES
  ('CCCCCOC(=O)Nc1nc(=O)n([C@@H]2O[C@H](C)[C@@H](O)[C@H]2O)cc1F', 3.74),
  ('CN[C@@H](C)[C@H]1[C@H](O)C[C@@]2(C)[C@@H]3CC[C@H]4C(C)(C)[C@@H](NC)CC[C@@]45C[C@@]35CC[C@]12C', 17.2),
  ('O=C(O)c1cccnc1', -0.509),
  ('CCc1nc(N)nc(N)c1-c1ccc(Cl)cc1', -0.769),
  ('COc1ccccc1N1CCN(CC(O)COc2cccc3ccccc23)CC1 (stereo not drawn)', -8.14),
  ('CCN(CC)CCNC(=O)c1c(C)[nH]c(/C=C2\C(=O)Nc3ccc(F)cc32)c1C [Sunitinib Malate (Sutent)]', 1.4),
  ('CC(C[N+](C)(C)C)OC(N)=O (stereo not drawn) [Bethanechol chloride]', -1.35),
  ('Cc1nc(Nc2ncc(C(=O)Nc3c(C)cccc3Cl)s2)cc(N2CCN(CCO)CC2)n1', -9.79),
  ('Nc1ccn([C@H]2CC[C@@H](CO)O2)c(=O)n1', 3.28),
  ('NC(=O)c1ncn([C@@H]2O[C@H](CO)[C@@H](O)[C@H]2O)n1', 12.3),
  ('CC[C@H]1OC(=O)[C@H](C)[C@@H](O[C@H]2C[C@@](C)(OC)[C@@H](O)[C@H](C)O2)[C@H](C)[C@@H](O[C@@H]2O[C@H](C)C[C@H](N(C)C)[C@H]2O)[C@](C)(OC)C[C@@H](C)C(=O)[C@H](C)[C@@H](O)[C@]1(C)O', -1.54),
  ('COc1ccc2cc3[n+](cc2c1OC)CCc1cc2c(cc1-3)OCO2 [Berberine Hydrochloride]', -2.08);

###

- Test system: primary mouse cortical neurons
- Construct: primary cortical neurons, DIV 10
- experiment_summary: cells
- Design: Protection from NMDA-induced (30 uM, 10 min) neuronal death; Hoechst nuclear morphology by automated microscopy
- condition: Cortical neurone, 20 h, read-out: % inhibition, inhibition of NMDA-induced cell death (protection score), 30 min pre-treatment
inhibition at 10 µM reference
property_measured: inhibition at 10 µM

INSERT INTO results (smiles_string, value_reported) VALUES
  ('Cc1ccc(-c2cc(C(F)(F)F)nn2-c2ccc(S(N)(=O)=O)cc2)cc1', '-7.05%'),
  ('O=C(/C=C/C=C/c1ccc2c(c1)OCO2)N1CCCCC1', '-1.51%'),
  ('CN(C)[C@@H]1C(=O)C(C(N)=O)=C(O)[C@@]2(O)C(=O)C3=C(O)c4c(O)cccc4[C@@](C)(O)[C@H]3[C@H](O)[C@@H]12', '2.79%'),
  ('NC(=O)N/N=C/c1ccc([N+](=O)[O-])o1', '29.8%');

###

- System: primary mouse cortical neurons
- Construct: primary cortical neurons, DIV 10
- experiment_summary: cells
- Design: Protection from NMDA-induced (30 uM, 10 min) neuronal death; Hoechst nuclear morphology by automated microscopy
- condition: Cortical neurone, 20 h, read-out: % inhibition, inhibition of NMDA-induced cell death (protection score), 30 min pre-treatment
inhibition at 10 µM reference
property_measured: inhibition at 10 µM (%)

INSERT INTO measurements (molecule, target_system, unit, value_reported) VALUES
  ('CCN(CC)C(=S)SSC(=S)N(CC)CC [Disulfiram (Antabuse)]', 'primary mouse cortical neurons', '%', -13.6),
  ('COc1ccc(-c2cc(=O)c3c(OC)c(OC)c(OC)c(OC)c3o2)cc1 [Tangeretin (Tangeritin)]', 'primary mouse cortical neurons', '%', -0.746),
  ('Cc1cnc(C(=O)O)c[n+]1[O-] [Acipimox]', 'primary mouse cortical neurons', '%', -0.00389),
  ('N=C(N)NC(=N)N1CCOCC1 [Moroxydine]', 'primary mouse cortical neurons', '%', 0.926),
  ('CN/C(=C\[N+](=O)[O-])NCCSCc1ccc(CN(C)C)o1 [Ranitidine (Zantac)]', 'primary mouse cortical neurons', '%', 1.37);

Values were extracted from paper PMC7489219.
